Value source: paper PMC4474532

B1: human PERK luminal domain (residues 105–403) [human] / itself (parent)
chain: LVIISTLDGRIAALDPENHGKKQWDLDVGSGSLVSSSLSKPEVFGNKMIIPSLDGALFQWDQDRESMETVPFTVESLLESSYKFGDDVVLVGGKSLTTYGLSAYSGKVRYICSALGCRQWDSDEMEQEEDILLLQRTQKTVRAVGPRSGNEKWNFSVGHFELRYIPDMETRAGFIESTFKPNENTEESKIISDVEEQEAAIMDIVIKVSVADWKVMAFSKKGGHLEWEYQFCTPIASAWLLKDGKVIPISLFDDTSYTSNDDVLEDEEDIVEAARGATENSVYLGMYRGQLYLQSSVRI

variants of: B1; assay: sedimentation velocity AUC; conditions: with itself; parent: 0.73
measure_name: screen value

>>> value("chain 1 L291N")
0.32
>>> value("chain 1 L284N")
0.31
>>> value("chain 1 A274N")
0.35
>>> value("chain 1 L293N")
0.28
